- Tested on: MCF7
- Experiment notes: Cytotoxicity against human MCF7 cells assessed as reduction in cell viability measured after 24 hrs by MTT assay
- Assay setup: MCF7, 24 h
Label Fulfilled when IC50 is strictly below 400 nM; otherwise label Not fulfilled.

A selection of reference data follows.
Chemical string: COc1cc(Nc2cc3c(cc2C(=O)NN)OCCO3)cc(OC)c1OC
Group label: Fulfilled

Chemical string: COc1cc([C@@H]2c3cc4c(cc3[C@H](O)[C@H]3COC(=O)[C@H]23)OCO4)cc(OC)c1OC
Group label: Fulfilled

Please indicate whether the reported IC50 of COC(=O)c1cc2c(cc1NC(=O)c1cc(OC)c(OC)c(OC)c1)OCCO2 is strictly below 400 nM.
Not fulfilled

Please indicate whether the reported IC50 of COc1cc(C(=O)Nc2cc3c(cc2C(=O)O)OCCO3)cc(OC)c1OC is strictly below 400 nM.
Not fulfilled

Please indicate whether the reported IC50 of COC(=O)c1cc2c(cc1Nc1cc(OC)c(OC)c(OC)c1)OCCO2 is strictly below 400 nM.
Fulfilled

Sourced from ChEMBL document CHEMBL5137013
